The origin of these recorded values is paper PMC6807911.

Please respond with reported Ki for every item in the list.
# test.system: TcCA (Trypanosoma cruzi carbonic anhydrase) (Trypanosoma cruzi)
# Sequence (Q4CVY4 39-638): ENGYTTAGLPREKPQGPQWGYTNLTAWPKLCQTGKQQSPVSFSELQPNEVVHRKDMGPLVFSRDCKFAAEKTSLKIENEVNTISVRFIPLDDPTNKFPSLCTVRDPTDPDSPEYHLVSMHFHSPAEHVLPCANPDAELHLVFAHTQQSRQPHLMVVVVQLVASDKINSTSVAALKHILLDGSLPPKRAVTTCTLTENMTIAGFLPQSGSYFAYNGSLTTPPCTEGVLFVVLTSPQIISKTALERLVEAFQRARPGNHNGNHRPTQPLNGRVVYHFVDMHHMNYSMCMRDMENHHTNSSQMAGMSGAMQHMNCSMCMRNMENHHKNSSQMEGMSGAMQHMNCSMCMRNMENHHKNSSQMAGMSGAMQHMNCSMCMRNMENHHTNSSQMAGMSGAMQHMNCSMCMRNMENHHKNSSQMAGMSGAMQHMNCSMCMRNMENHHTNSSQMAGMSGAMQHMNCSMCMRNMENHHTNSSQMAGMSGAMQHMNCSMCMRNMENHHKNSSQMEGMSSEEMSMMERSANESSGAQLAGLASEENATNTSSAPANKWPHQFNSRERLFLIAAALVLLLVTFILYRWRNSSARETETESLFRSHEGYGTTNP

See these solved cases before continuing.
[
  {
    "molecule": "O=S(=O)(O)NC1CCCCC1 [Sodium cyclamate]",
    "observed.value": "348 nM"
  },
  {
    "molecule": "COC(=O)[C@H](Cc1ccccc1)NS(=O)(=O)NCC(C)C [compound 5, 5]",
    "observed.value": "261 nM"
  },
  {
    "molecule": "COC(=O)CCNS(=O)(=O)NCCc1ccccc1 [compound 7, 7]",
    "observed.value": "7250 nM"
  }
]

Lab note: next molecule to report on.
What does the record list as Ki for CC1=CC(=O)NS(=O)(=O)O1 [Acesulphame] ?
2240 nM
